Value source: ChEMBL document CHEMBL1201862

tested on: HOP-92; experiment: NCI tumour cell line growth inhibition, 48 h
Active and inactive are the calls of the source. Cut-off read from the data, not from the text of the source: active = GI50 up to about 1.1 µM and inactive = higher.
Experimental readout: GI50

Cc1cc(C)n(C(=O)CSc2nc3ccc(I)cc3c(=O)n2Cc2ccccc2)n1
15.5 µM (inactive)
N#CC[N+]1(Cc2ccccn2)CCCC1.O=S(=O)([O-])c1ccccc1
> 100 µM (inactive)
Cc1sc(C)c2c1C(=O)CC2N (centres undefined)
18.5 µM (inactive)
O=[N+]([O-])c1c(/C=N/Nc2ccccc2)oc(-c2ccc3c(c2)OCO3)c1-c1ccc2c(c1)OCO2
19.8 µM (inactive)
C=CCOc1cccc(C2(O)c3ccccc3C3=NCCCN32)c1 (centres undefined)
21.8 µM (inactive)

# ---- query compound ----
Query :: Data request, read-out GI50, for CCN(CC)CCCn1cnc2ncccc2c1=O
Result :: > 100 µM (inactive)
